# IC50 per entry
Tested on: 252836-082-R-J2-PDC tumor spheroids, viability
Assay: Anticancer human tumor 252836-082-R-J2-PDC patient-derived head and neck squamous cell carcinoma cell line growth inhibition [PI3K]
Conditions: curve of first compound; second compound 0.1 µM; spheroids with HUVEC and MSC
I only need the number, in µM, no unit after it.

INSERT INTO assay_data (compound, test_readout, assay_value) VALUES
  ('CC(C)n1nc(-c2ccc3oc(N)nc3c2)c2c(N)ncnc21 + CC(Nc1ccc2c(c1)OCCn1cc(N3C(=O)OCC3C(F)F)nc1-2)C(N)=O', 'IC50', 0.00942);

# IC50 of CC(C)n1nc(-c2ccc3oc(N)nc3c2)c2c(N)ncnc21 + Cc1nc(NC(=O)N2CCCC2C(N)=O)sc1-c1ccnc(C(C)(C)C(F)(F)F)c1 = 0.0276

# IC50 of Cn1nccc1Nc1nccc(-c2ccn(C(CO)c3ccc(Cl)c(F)c3)c(=O)c2)n1 (stereo not drawn) + CC(Nc1ccc2c(c1)OCCn1cc(N3C(=O)OCC3C(F)F)nc1-2)C(N)=O = 5.84

* * *

System: 252836-082-R-J2-PDC tumor spheroids, viability
Test: Anticancer human tumor 252836-082-R-J2-PDC cell line growth inhibition [PI3K];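 also: spheroids exposed to agents for seven days before readout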;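 as to viability, T/C: percent of vehicle DMSO control viability so 100% = untreated growth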
Conditions: second compound 0.0316 µM; first compound 0.1 µM; stronger effect = lower value; spheroids with HUVEC and MSC
test-readout: viability, T/C (%)
I only need the number, in %, no unit after it.

Worked cases, viability, T/C given:
INSERT INTO measurements (molecule, subject_of_test, assay_value) VALUES
  ('C=CC(=O)N1CCN(c2nc(=O)n(-c3c(C)ccnc3C(C)C)c3nc(-c4c(O)cccc4F)c(F)cc23)C(C)C1 (stereo not given) + CC(Nc1ncnc2nc[nH]c12)c1cc2cccc(Cl)c2c(=O)n1-c1ccccc1', '252836-082-R-J2-PDC tumor spheroids, viability', 95.8),
  ('Cn1ncnc1[C@H]1c2n[nH]c(=O)c3cc(F)cc(c23)N[C@@H]1c1ccc(F)cc1 + CC(Nc1ccc2c(c1)OCCn1cc(N3C(=O)OCC3C(F)F)nc1-2)C(N)=O', '252836-082-R-J2-PDC tumor spheroids, viability', 50.3),
  ('C[C@@H](NC(=O)c1ncnc(N)c1Cl)c1ncc(C(=O)Nc2cc(C(F)(F)F)c(Cl)cn2)s1 + COc1c(OCCCN2CCOCC2)ccc2c3n(c(=NC(=O)c4cnc(N)nc4)nc12)CCN3', '252836-082-R-J2-PDC tumor spheroids, viability', 66.1),
  ('CC1(C)CCC(CN2CCN(c3ccc(C(=O)NS(=O)(=O)c4ccc(NCC5CCOCC5)c([N+](=O)[O-])c4)c(Oc4cnc5[nH]ccc5c4)c3)CC2)=C(c2ccc(Cl)cc2)C1 + COc1c(OCCCN2CCOCC2)ccc2c3n(c(=NC(=O)c4cnc(N)nc4)nc12)CCN3', '252836-082-R-J2-PDC tumor spheroids, viability', 56);

The recorded viability, T/C with 252836-082-R-J2-PDC tumor spheroids, viability for Cn1ncc(Cl)c1-c1cc(C(=O)NC(CN)Cc2cccc(F)c2)sc1Cl (stereo not given) + CC(Nc1ncnc2nc[nH]c12)c1cc2cccc(Cl)c2c(=O)n1-c1ccccc1 was 65

* * *

Test system: 252836-082-R-J2-PDC tumor spheroids, viability
Assay: Anticancer human tumor 252836-082-R-J2-PDC cell line growth inhibition [PI3K];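 also: spheroids exposed to agents for seven days before readout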;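 as to viability, T/C: percent of vehicle DMSO control viability so 100% = untreated growth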
Conditions: second compound 10 µM; first compound 1 µM; stronger effect = lower value; spheroids with HUVEC and MSC
# viability, T/C per entry
I only need the number, in %, no unit after it.

Worked cases, viability, T/C given:
INSERT INTO results (compound, units, assay_value) VALUES
  ('CNC(=O)c1ccc(N2C(=S)N(c3ccc(C#N)c(C(F)(F)F)c3)C(=O)C2(C)C)cc1F + CC(Nc1ncnc2nc[nH]c12)c1cc2cccc(Cl)c2c(=O)n1-c1ccccc1', '%', 70.5),
  ('C#Cc1c(F)ccc2cc(O)cc(-c3ncc4c(N5CC6CCC(C5)N6)nc(OCC56CCCN5CC(F)C6)nc4c3F)c12 (centres undefined) + CC(Nc1ncnc2nc[nH]c12)c1cc2cccc(Cl)c2c(=O)n1-c1ccccc1', '%', 49.4),
  ('CC(C)NCC(C(=O)N1CCN(c2ncnc3c2C(C)CC3O)CC1)c1ccc(Cl)cc1 (centres undefined) + Cc1nc(NC(=O)N2CCCC2C(N)=O)sc1-c1ccnc(C(C)(C)C(F)(F)F)c1', '%', 21.6);

Please examine the following record next.
# viability, T/C of CC1(C)CCC(CN2CCN(c3ccc(C(=O)NS(=O)(=O)c4ccc(NCC5CCOCC5)c([N+](=O)[O-])c4)c(Oc4cnc5[nH]ccc5c4)c3)CC2)=C(c2ccc(Cl)cc2)C1 + CC(Nc1ncnc2nc[nH]c12)c1cc2cccc(Cl)c2c(=O)n1-c1ccccc1 = 65.8

* * *

# pIC50 per entry
Test system: 252836-082-R-J2-PDC tumor spheroids, viability
Experiment: Anticancer human tumor 252836-082-R-J2-PDC cell line growth inhibition [PI3K];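 also: spheroids exposed to agents for seven days before readout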
Settings: curve of first compound; second compound 3.16 µM; spheroids with HUVEC and MSC
pIC50: −log10 of the molar value.

INSERT INTO measurements (compound, assay_value) VALUES
  ('CC1(C)CCC(Nc2ncc(C(F)(F)F)c(-c3c[nH]c4c(P(C)(C)=O)c(C#N)ccc34)n2)CN1 (stereo unspecified) + CC(Nc1ncnc2nc[nH]c12)c1cc2cccc(Cl)c2c(=O)n1-c1ccccc1', '> 7.50'),
  ('CCN1CCN(Cc2ccc(Nc3ncc(F)c(-c4cc(F)c5nc(C)n(C(C)C)c5c4)n3)nc2)CC1 + Cc1nc(NC(=O)N2CCCC2C(N)=O)sc1-c1ccnc(C(C)(C)C(F)(F)F)c1', '> 8.50'),
  ('CC(C)n1nc(-c2ccc3oc(N)nc3c2)c2c(N)ncnc21 + Cc1nc(NC(=O)N2CCCC2C(N)=O)sc1-c1ccnc(C(C)(C)C(F)(F)F)c1', '> 9.50'),
  ('CC1(C)CCC(Nc2ncc(C(F)(F)F)c(-c3c[nH]c4c(P(C)(C)=O)c(C#N)ccc34)n2)CN1 (stereo unspecified) + Cc1nc(NC(=O)N2CCCC2C(N)=O)sc1-c1ccnc(C(C)(C)C(F)(F)F)c1', '> 7.50'),
  ('Cn1ncc(Cl)c1-c1cc(C(=O)NC(CN)Cc2cccc(F)c2)sc1Cl (stereo unspecified) + Cc1nc(NC(=O)N2CCCC2C(N)=O)sc1-c1ccnc(C(C)(C)C(F)(F)F)c1', '> 7.50');

Please examine the following record next.
# pIC50 of CC(C)NCC(C(=O)N1CCN(c2ncnc3c2C(C)CC3O)CC1)c1ccc(Cl)cc1 (stereo unspecified) + Cc1nc(NC(=O)N2CCCC2C(N)=O)sc1-c1ccnc(C(C)(C)C(F)(F)F)c1 = > 7.50

* * *

Test system: 252836-082-R-J2-PDC tumor spheroids, viability
Experiment: Anticancer human tumor 252836-082-R-J2-PDC cell line growth inhibition [PI3K];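 also: spheroids exposed to agents for seven days before readout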
Details: curve of first compound; second compound 0.1 µM; spheroids with HUVEC and MSC
Text: Combinatorial screen of targeted agents with the PI3K inhibitors inavolisib, alpelisib, duvelisib, and copanlisib in multi-cell type tumor spheroids A high-throughput screen of multi-cell type tumor spheroids was designed to identify active combinations of targeted small molecules and PI3K pathway inhibitors. […] Compounds. […] If the clinical Cmax for an agent had not been determined, the highest concentration tested was 10 microM. […]
# IC50 per entry

Worked cases, IC50 given:
INSERT INTO measurements (compound, test_readout, assay_value) VALUES
  ('CCN1CCN(Cc2ccc(Nc3ncc(F)c(-c4cc(F)c5nc(C)n(C(C)C)c5c4)n3)nc2)CC1 + COc1c(OCCCN2CCOCC2)ccc2c3n(c(=NC(=O)c4cnc(N)nc4)nc12)CCN3', 'IC50', '< 3.16 nM'),
  ('Cn1nccc1Nc1nccc(-c2ccn(C(CO)c3ccc(Cl)c(F)c3)c(=O)c2)n1 (stereo not drawn) + Cc1nc(NC(=O)N2CCCC2C(N)=O)sc1-c1ccnc(C(C)(C)C(F)(F)F)c1', 'IC50', '> 10000 nM'),
  ('CNC(=O)c1ccc(N2C(=S)N(c3ccc(C#N)c(C(F)(F)F)c3)C(=O)C2(C)C)cc1F + CC(Nc1ncnc2nc[nH]c12)c1cc2cccc(Cl)c2c(=O)n1-c1ccccc1', 'IC50', '> 10000 nM'),
  ('Cn1ncc(Cl)c1-c1cc(C(=O)NC(CN)Cc2cccc(F)c2)sc1Cl (stereo not drawn) + CC(Nc1ncnc2nc[nH]c12)c1cc2cccc(Cl)c2c(=O)n1-c1ccccc1', 'IC50', '713 nM'),
  ('Cn1ncnc1[C@H]1c2n[nH]c(=O)c3cc(F)cc(c23)N[C@@H]1c1ccc(F)cc1 + Cc1nc(NC(=O)N2CCCC2C(N)=O)sc1-c1ccnc(C(C)(C)C(F)(F)F)c1', 'IC50', '> 100 nM'),
  ('CC(=O)c1c(C)c2cnc(Nc3ccc(N4CCNCC4)cn3)nc2n(C2CCCC2)c1=O + CC(Nc1ncnc2nc[nH]c12)c1cc2cccc(Cl)c2c(=O)n1-c1ccccc1', 'IC50', '> 100 nM');

Please examine the following record next.
# IC50 of Cn1cnc2c(F)c(Nc3ccc(Br)cc3Cl)c(C(=O)NOCCO)cc21 + COc1c(OCCCN2CCOCC2)ccc2c3n(c(=NC(=O)c4cnc(N)nc4)nc12)CCN3 = < 9.49 nM
